# TGI annotations
tested on: 786-0 renal; assay: NCI tumour cell line growth inhibition, 48 h
Report only the number, with the unit µM understood.

QUERY: Requested read-out: TGI. Entry: Clc1ccc(Cc2nc3cc(Cl)c(Cl)cc3n2CC2CCCN3CCCCC23)cc1Cl (centres undefined)
RESULT: 12.7

QUERY: Requested read-out: TGI. Entry: COc1cccc2c1C(=O)c1c(O)c3c(c(O)c1C2=O)C[C@@](O)(C(=O)CO)C[C@@H]3OC1CC(N(C)C)C(O)C(C)O1 (some centres undefined)
RESULT: 1.51

QUERY: Requested read-out: TGI. Entry: CN(C)CCNc1c2c(c(NCCN(C)C)c3c(CN(C)C)c[nH]c13)C(=O)c1ccccc1C2=O
RESULT: 8.91

QUERY: Requested read-out: TGI. Entry: Cc1ccc(N(CC(=O)Nc2ccc(S(=O)(=O)NC3CCN(C)CC3)cc2)S(=O)(=O)c2ccc(Cl)cc2)cc1
RESULT: 5.23

----------
tested on: UO-31 renal; assay: NCI tumour cell line growth inhibition, 48 h
readoutKind: TGI

Before answering, review these 3 worked examples.
[
  {
    "molecule": "Cc1cccc(C)c1NC(=O)CCC(=O)NNc1nnc(C)n1N",
    "recordedResult": "> 100 µM"
  },
  {
    "molecule": "COc1cc(C(=O)Nc2cccc3ccccc23)c(Br)c(OC)c1OC",
    "recordedResult": "86.1 µM"
  },
  {
    "molecule": "COc1cc2c3c(c1Oc1nnnn1-c1ccccc1)-c1c(ccc4c1OCO4)C[C@H]3N(C)CC2",
    "recordedResult": "> 100 µM"
  }
]

QUERY: Form entry - test system: UO-31 renal; read-out: TGI; molecule: [O-][n+]1c(-c2ccccc2)oc2ccccc21
RESULT: 40.3 µM

QUERY: Form entry - test system: UO-31 renal; read-out: TGI; molecule: COc1cc2c(cc1OCCCCCN1C(=O)c3cccc4cccc(c34)C1=O)N=C[C@@H]1CCCN1C2=O
RESULT: 0.454 µM

QUERY: Form entry - test system: UO-31 renal; read-out: TGI; molecule: NC(N)=Nc1ccc(CC(N)C(=O)NCC(=O)C(CC(=O)O)c2ncc(NC(=O)C(F)(F)F)o2)cc1 (stereo unspecified)
RESULT: > 25 µM

QUERY: Form entry - test system: UO-31 renal; read-out: TGI; molecule: O=C1c2ccccc2C(=O)N1[C@@H](Cc1ccccc1)C(=O)n1cccc1CO
RESULT: > 100 µM

QUERY: Form entry - test system: UO-31 renal; read-out: TGI; molecule: CC(=O)c1ccc(Nc2cc(-n3nnc4ccccc43)nc3ccccc23)cc1
RESULT: > 100 µM

----------
tested on: NCI-H460 lung
Your answer must be one of the following: 1.0 (active), 0.0 (inactive)

Would you please look over these solved cases?
[
  {
    "compound": "CN(c1ccc(C(=O)O)cc1)c1cc(O/N=[N+](\\[O-])N(C)C)c([N+](=O)[O-])cc1[N+](=O)[O-]",
    "qualitativeLabel": 0.0
  },
  {
    "compound": "Oc1ccc(OCCOc2ccc(O)cc2)cc1",
    "qualitativeLabel": 0.0
  },
  {
    "compound": "COC1=C(C)C(=O)N2[C@@H]1[C@H](c1ccccc1)OC21C=CC(=O)C=C1",
    "qualitativeLabel": 0.0
  },
  {
    "compound": "COc1cc(Nc2cc(O)c3c(=O)cc(-c4ccccc4)oc3c2)cc(OC)c1",
    "qualitativeLabel": 1.0
  }
]

QUERY: Dear colleague, could you share the recorded outcome for NCCCNc1nc2ccccc2c2c(=O)c3cccc(F)c3sc12 when you have a moment?
RESULT: 0.0

QUERY: Dear colleague, could you share the recorded outcome for C=C1C(O)C2C(=C(CC(C)C)C13CC3)C(=O)C(C)(C)C2O (centres undefined) when you have a moment?
RESULT: 0.0

QUERY: Dear colleague, could you share the recorded outcome for CCC(=O)OCC1OC(n2cnc3c(=S)nc(N)[nH]c32)C(OC(=O)CC)C1OC(=O)CC (centres undefined) when you have a moment?
RESULT: 0.0

QUERY: Dear colleague, could you share the recorded outcome for COc1ccc(/C=C/C(=O)c2c(O)c(C)c(O)c3c2OC2=CC(O)=C(C(C)=O)C(=O)[C@]23C)cc1 when you have a moment?
RESULT: 0.0

QUERY: Dear colleague, could you share the recorded outcome for O=C(c1ccc(Oc2ccccc2)cc1Cl)c1c[nH]c2ncnc(N[C@@H]3CC[C@@H](CO)OC3)c12 when you have a moment?
RESULT: 0.0

The reported measurements were obtained from PubChem BioAssay (NCI).
